System: EKVX NSCLC
PROTOCOL_DESCRIPTION: NCI-60 one-dose screen, 48 h (100 = growth as untreated, 0 = no growth, -100 = all killed)
MEASUREMENT_SETUP: 10 µM
Compounds without any hit were thinned out: in the full panel of roughly 83,000, 20% have a hit. Activity calls are given as the source filed them. The calls were made as follows: active = growth percent below 10; inactive = the rest.
PROPERTY: growth

{"MOLECULE": "CCOC(=O)c1ccc(NC(=O)CSC(CC(=O)c2sc(Nc3ccccn3)nc2C)c2ccccc2F)cc1 (centres undefined)", "EXPERIMENTAL_VALUE": "20.2% (inactive)"}
{"MOLECULE": "Cc1ccc(S(=O)(=O)N2CCN(S(=O)(=O)c3oc(-c4ccccc4)nc3C#N)CC2)cc1", "EXPERIMENTAL_VALUE": "81.7% (inactive)"}
{"MOLECULE": "CCn1c(SCC(=O)Nc2ccc(-c3nc4ccccc4[nH]3)cc2)nc2ccccc2c1=O", "EXPERIMENTAL_VALUE": "-42.5% (active)"}
{"MOLECULE": "Cc1ccc2sc3c(c2c1)Oc1nc[nH]c(=O)c1C3c1cccc(F)c1 (centres undefined)", "EXPERIMENTAL_VALUE": "87.9% (inactive)"}
{"MOLECULE": "COc1ccc(C(=O)COc2ccc(NC(=O)Nc3ccccc3)cc2)cc1", "EXPERIMENTAL_VALUE": "82.7% (inactive)"}
{"MOLECULE": "C#C[C@]1(O)CC[C@H]2[C@@H]3CC=C4c5sc(Nc6ccc(N(C)C)cc6)nc5CC[C@]4(C)[C@H]3CC[C@@]21C", "EXPERIMENTAL_VALUE": "24.7% (inactive)"}
{"MOLECULE": "COc1cccc(C(=O)CSc2nc(-c3ccc(OCc4ccccc4)c(OC)c3)c(C#N)c(=O)[nH]2)c1", "EXPERIMENTAL_VALUE": "97.1% (inactive)"}
{"MOLECULE": "COc1cccc(O)c1/C=C1\\SCc2cc3c(OC)cccc3[o+]c21", "EXPERIMENTAL_VALUE": "105% (inactive)"}
{"MOLECULE": "CCOC(=O)C1=C(N)N(c2ccc(C)cc2)C2=C(C(=O)CC(C)(C)C2)C1c1ccccc1Br (centres undefined)", "EXPERIMENTAL_VALUE": "91% (inactive)"}

====

System: MDA-MB-468 breast
PROTOCOL_DESCRIPTION: NCI-60 one-dose screen, 48 h
MEASUREMENT_SETUP: 10 µM unless noted
The panel holds about 83,000 compounds, 20% with a hit somewhere; the sample as a whole holds those more often. Active and inactive are the calls of the source. The calls were made as follows: active = growth percent below 10; inactive = the rest.
Labels: active, inactive

{"COMPOUND": "CS(=O)(=O)Nc1cc(-c2ccc3ncnc(Nc4cccc(Cl)c4F)c3c2)cnc1Cl", "GROUP": "active"}
{"COMPOUND": "c1coc(CNc2c3ccccc3nc3ccccc23)c1", "GROUP": "inactive"}
{"COMPOUND": "NC(=N\\N=C/Cc1ccccc1)/C(N)=N\\N=C\\Cc1ccccc1", "GROUP": "inactive"}
{"COMPOUND": "CC(C)(C)n1cc(-c2ccnc(NCCNS(=O)(=O)c3ccc(C(F)(F)F)cc3)c2)c(-c2cccc(O)c2)n1", "GROUP": "inactive"}
{"COMPOUND": "O=C(CN1CCOCC1)Nc1ccc2ncnc(Nc3ccc(Oc4cccc(C(F)(F)F)c4)c(Cl)c3)c2c1", "GROUP": "active"}
{"COMPOUND": "C=CCOC(=O)C1=C(C)N(CC)C(=O)NC1c1c(Cl)n(C)c2ccccc12 (stereo unspecified)", "GROUP": "inactive"}
{"COMPOUND": "O=C1C=CC(=O)N1c1cccc(Cl)c1", "GROUP": "inactive"}
{"COMPOUND": "COCCNC1=C(Cl)C(=O)c2ccccc2C1=O", "GROUP": "inactive"}
{"COMPOUND": "CN(C)c1ccc(C(=S)c2ccc(N(C)C)cc2)cc1", "GROUP": "active"}
{"COMPOUND": "CCN(CC)CCCC(C)Nc1cnc(C(=O)Nc2ccc(Cl)c3cccnc23)cn1 (stereo unspecified)", "GROUP": "active"}
{"COMPOUND": "NC(C(=O)O)C(O)c1ccc(OCc2ccccc2)c(OCc2ccccc2)c1 (stereo unspecified)", "GROUP": "inactive"}
{"COMPOUND": "CCOC(=O)c1c(C)c2c(n1Cc1ccccc1)CSc1cc(C#N)c(=O)[nH]c1-2", "GROUP": "inactive"}
{"COMPOUND": "CN1CCN(Cc2ccc(NC(=O)c3cncc(C#Cc4cnc5ccc(NC6CCOCC6)nn45)c3)cc2C(F)(F)F)CC1", "GROUP": "active"}
{"COMPOUND": "O=C1NC(=S)S/C1=C\\c1cn(-c2ccccc2)nc1-c1ccc([N+](=O)[O-])cc1", "GROUP": "active"}
{"COMPOUND": "COc1cccc(-c2nn(-c3ccccc3)cc2-c2ccnc(NCCCO)c2)c1", "GROUP": "inactive"}
{"COMPOUND": "COC(=O)C(=Cc1ccccc1[N+](=O)[O-])C(=O)OC", "GROUP": "inactive"}
{"COMPOUND": "COc1ccc(/C=C2\\COc3ccc(-c4ccccc4)cc3C2=O)c(OC)c1", "GROUP": "inactive"}
{"COMPOUND": "CCOC(=O)c1cc2c(n1Cc1cccc(OC)c1)-c1oncc1CC2", "GROUP": "active"}
{"COMPOUND": "COC(=O)c1c2c(c(C)[n+]([O-])c1C)C(=O)C=CC2=O", "GROUP": "active"}
{"COMPOUND": "COCCOC1=C(Cl)C(=O)c2ccccc2C1=O", "GROUP": "active"}
{"COMPOUND": "CC(C)OP(=O)(O)c1ncc(-c2ccc(C(F)(F)F)cc2)c(NC2CCCCCC2)n1", "GROUP": "inactive"}

====

Tested on: MDA-MB-468 breast
PROTOCOL_DESCRIPTION: NCI-60 one-dose screen, 48 h
MEASUREMENT_SETUP: 10 µM unless noted
The panel holds about 83,000 compounds, 20% with a hit somewhere; the sample as a whole holds those more often. The source made the active and inactive calls. The calls were made as follows: active = growth percent below 10; inactive = the rest.
Labels: TRUE (active), FALSE (inactive)

{"COMPOUND": "CC12OC(CC(O)C1O)n1c3ccccc3c3c4c(c5c6ccccc6n2c5c31)C(=O)N(CCN1CCOCC1)C4=O (centres undefined)", "GROUP": "TRUE"}
{"COMPOUND": "COc1ccc(CN2C(=O)OC(C)(COC(C)=O)C2=O)cc1 (centres undefined)", "GROUP": "FALSE"}
{"COMPOUND": "Clc1cccc(Cl)c1C(Nc1nc2ccccc2s1)Nc1nc2ccccc2s1", "GROUP": "FALSE"}
{"COMPOUND": "CCN(CC)CCCC(C)Nc1c(C)cnc2cc(Cl)c(C)cc12 (centres undefined)", "GROUP": "FALSE"}
{"COMPOUND": "FC(F)(F)c1ccc2c(c1)n1cnnc1c1nncn21", "GROUP": "FALSE"}
{"COMPOUND": "Nc1nc(SN=Nc2ccc(S(N)(=O)=O)cc2)c2[nH]cnc2n1", "GROUP": "TRUE"}
{"COMPOUND": "O=C1c2ccccc2C2N1CCC1CCc3ccccc3N12 (centres undefined)", "GROUP": "FALSE"}
{"COMPOUND": "O=C(Nc1ccc(N2CCOCC2)cc1)Nc1ccc2c(ccn2C(=O)c2cccc(F)c2)c1", "GROUP": "FALSE"}
{"COMPOUND": "COc1cc(C2CC(c3cccc(Nc4ccnc5cc(Cl)ccc45)c3)=NN2C=O)cc(OC)c1OC (centres undefined)", "GROUP": "TRUE"}
{"COMPOUND": "CN(c1cc2ncc(=O)[nH]c2cc1NC(N)=NCc1ccc(Cl)cc1)C1CCCCC1", "GROUP": "TRUE"}
{"COMPOUND": "CC(C)(C)c1nn(-c2ccccc2)c2c1C(=O)CSC(c1ccc3c(c1)OCO3)N2 (centres undefined)", "GROUP": "FALSE"}
{"COMPOUND": "COc1ccc(CCN(CC(=O)N(CC(N)=O)C2CCC[C@@H]2OCc2ccccc2)C(=O)CN(C(=O)CN(CCc2ccc(Cl)cc2)C(=O)CN(C(=O)CN(C)Cc2ccccc2F)[C@H](C)C2CCCCC2)[C@H](C)C2CCCCC2)cc1OC (some centres undefined)", "GROUP": "FALSE"}
{"COMPOUND": "NC(=O)N1N=C(c2cc3ccccc3oc2=O)CC1c1cn(-c2ccccc2)nc1-c1ccc(Cl)cc1 (centres undefined)", "GROUP": "FALSE"}
{"COMPOUND": "O=C(O)c1ccc(CNc2ccc(C(=O)CCl)cc2)cc1", "GROUP": "FALSE"}
{"COMPOUND": "COc1cc(/C=C/C(=O)c2ccc(O)c(CN3CCN(c4cc5c(cc4F)c(=O)c(C(=O)O)cn5C4CC4)CC3)c2)cc(OC)c1OC", "GROUP": "TRUE"}
{"COMPOUND": "O=C1C(=O)c2cccnc2-c2ncccc21", "GROUP": "TRUE"}
{"COMPOUND": "O=C(Nc1ccccc1)c1cc(Cl)ccc1O", "GROUP": "FALSE"}
{"COMPOUND": "CCOC(=O)c1nnn(-c2no[n+]([O-])c2-c2ccc(OC)cc2)c1COc1cccc2cccnc12", "GROUP": "FALSE"}
{"COMPOUND": "CS(=O)(=O)c1ccc(/C(=N/N=C(N)N)c2ccc(Cl)cc2)cc1", "GROUP": "FALSE"}
